- System: KM-20L2
- Run description: NCI tumour cell line growth inhibition, 48 h
Calls of active or inactive are those of the source. Cut-off read from the data, not from the text of the source: active = GI50 up to about 1.1 µM and inactive = higher.
Please answer using one outcome listed in TRUE for active, FALSE for inactive

Enquiry: Field: outcome | Entry: CCCCCC(=O)OC[n+]1ccc2c(C)c3[nH]c4ccccc4c3c(C)c2c1
Return: TRUE

Enquiry: Field: outcome | Entry: N#CCCN(C1=NN(C(=O)CC(=O)Nc2ccc(Cl)cc2)C(c2ccccc2)C1)c1ccc(Cl)cc1 (configuration not stated)
Return: FALSE

Enquiry: Field: outcome | Entry: CC(=O)OC1(C)C(=O)OC1(C)C(C)=O (configuration not stated)
Return: FALSE

Enquiry: Field: outcome | Entry: CC1(C)C2=CCCC(=O)[C@@]2(C)CC[C@@H]1O
Return: FALSE

Enquiry: Field: outcome | Entry: COC(=O)C[C@](O)(CCC(C)(C)O)C(=O)O[C@@H]1C(OC)=C[C@]23CCCN2CCc2cc4c(cc2[C@H]13)OCO4
Return: TRUE

Enquiry: Field: outcome | Entry: COC(=O)CCC(=O)C(CC(=O)OC)C(=O)CCC(=O)NCCc1ccccc1 (configuration not stated)
Return: FALSE

Enquiry: Field: outcome | Entry: COc1ccc(NC(=O)C2C(=O)N(c3ccc(OC)cc3)C(=O)/C2=N\NC(N)=O)cc1 (configuration not stated)
Return: FALSE

###

Give GI50 for every item shown.
- System: CCRF-CEM
- Run description: NCI tumour cell line growth inhibition, 48 h
The source made the active and inactive calls. No stated cut-off is given here; in the data, active = GI50 up to about 1.1 µM and inactive = higher.

Enquiry: Request body: readout GI50, system CCRF-CEM, query Cc1cn([C@H]2C=C[C@@H](CO)O2)c(=O)[nH]c1=O . Return the value.
Return: 469 µM (inactive)

Enquiry: Request body: readout GI50, system CCRF-CEM, query CC(=O)OC12c3ccccc3-c3ccccc3C1C(C(=O)O)C2(Cl)C(=O)O (centres undefined) . Return the value.
Return: > 10 µM (inactive)

Enquiry: Request body: readout GI50, system CCRF-CEM, query Nc1ccc(-c2nc3ccccc3s2)cc1I . Return the value.
Return: 30.1 µM (inactive)

Enquiry: Request body: readout GI50, system CCRF-CEM, query CC(=O)N1CCN(CCCCN2c3ccccc3Sc3cc(N=[N+]=[N-])ccc32)CC1 . Return the value.
Return: 14.5 µM (inactive)

Enquiry: Request body: readout GI50, system CCRF-CEM, query COc1cc2c(c(OC)c1OC)C(=O)[C@@H]1[C@H]2N1C(N)=O . Return the value.
Return: > 100 µM (inactive)

Enquiry: Request body: readout GI50, system CCRF-CEM, query Brc1ccc2c(c1)C1C(CO2)C(c2ccccc2)=NN1c1ccccc1 (centres undefined) . Return the value.
Return: > 100 µM (inactive)

Enquiry: Request body: readout GI50, system CCRF-CEM, query N#Cc1c(N2CCOCC2)[nH]c(=O)c(C(c2c(Cl)cccc2Cl)c2c(O)c(C#N)c(N3CCOCC3)[nH]c2=O)c1O . Return the value.
Return: 15.1 µM (inactive)

Enquiry: Request body: readout GI50, system CCRF-CEM, query COc1ccc(C2CC(=O)CC(c3ccc(OC)cc3)C23C(=O)NC(=S)NC3=O)cc1 (centres undefined) . Return the value.
Return: > 100 µM (inactive)

Enquiry: Request body: readout GI50, system CCRF-CEM, query COc1c(CC=C(C)C)c(O)c(C(CC(C)C)c2c(O)c(C(C)=O)c(O)c3c2OC(C(C)(C)O)C3)c(O)c1C(C)=O (centres undefined) . Return the value.
Return: 5.36 µM (inactive)

Enquiry: Request body: readout GI50, system CCRF-CEM, query CC1=C(/C=C/C(C)=C/C=C/C(C)=C/C=C/C=C(C)/C=C/C=C(C)/C=C/C=C(C)/C=C/C=C(\C)C(=O)O)C(C)(C)CCC1 . Return the value.
Return: > 100 µM (inactive)

Enquiry: Request body: readout GI50, system CCRF-CEM, query CCOC(=O)/C(=C\NC(=S)Nc1ccc(OCC)cc1)C(=O)c1ccccc1 . Return the value.
Return: > 100 µM (inactive)

Enquiry: Request body: readout GI50, system CCRF-CEM, query CCN(CC)CCNc1ccc2ncn3c4ccccc4c(=O)c1c23 . Return the value.
Return: 4.1 µM (inactive)

Enquiry: Request body: readout GI50, system CCRF-CEM, query CCCCc1c2c(nc3c1CCCC3O)/C(=C/c1ccccc1)CCC2 (centres undefined) . Return the value.
Return: 15.9 µM (inactive)

Enquiry: Request body: readout GI50, system CCRF-CEM, query N#CCCN(C1=NN(C(=O)CC(=O)Nc2ccc(Cl)cc2)C(c2ccccc2)C1)c1ccc(Cl)cc1 (centres undefined) . Return the value.
Return: > 100 µM (inactive)

Enquiry: Request body: readout GI50, system CCRF-CEM, query CC(=O)c1ccc(N2C(=O)C3c4[nH]c5ccccc5c4C4CCC(C(C)(C)C)CC4C3C2=O)cc1 (centres undefined) . Return the value.
Return: 36.3 µM (inactive)

Enquiry: Request body: readout GI50, system CCRF-CEM, query Cc1c(C(=O)CC(=O)C(=O)Nc2cccc(C(F)(F)F)c2)[n+]([O-])c2ccccc2[n+]1[O-] . Return the value.
Return: 2.51 µM (inactive)

Enquiry: Request body: readout GI50, system CCRF-CEM, query C/N=c1\sc2nc(C#N)c(C#N)nc2n1C . Return the value.
Return: 19.7 µM (inactive)

Enquiry: Request body: readout GI50, system CCRF-CEM, query COC(=O)[C@H](Cc1ccccc1)NC(=O)OCC1OC(n2cc(C)c(=O)[nH]c2=O)CC1N=[N+]=[N-] (some centres undefined) . Return the value.
Return: > 100 µM (inactive)

Enquiry: Request body: readout GI50, system CCRF-CEM, query CC(OC(=O)NCn1cc(-c2ccccc2)nn1)c1ccccc1 (centres undefined) . Return the value.
Return: 31.6 µM (inactive)

###

- System: OVCAR-5
- Run description: NCI tumour cell line growth inhibition, 48 h
Activity calls are given as the source filed them. Rule as the data show it: active = GI50 up to about 1.1 µM and inactive = higher.
Please answer using one outcome listed in t (active), f (inactive)

Enquiry: Field: outcome | Entry: O=C(/C=C/c1ccco1)N1CCN(Cc2ccccc2)CC1
Return: f

Enquiry: Field: outcome | Entry: CC1(C)N[PH]2(Nc3ccccc3O2)OC1=O
Return: f

Enquiry: Field: outcome | Entry: COc1cc(C(=O)C/C(CCC(=O)Nc2ccccc2[N+](=O)[O-])=N\NC(=O)C(N)=O)ccc1O
Return: f

Enquiry: Field: outcome | Entry: O=C1/C(=C/c2cccc(Br)c2)Cc2ccccc21
Return: f

Enquiry: Field: outcome | Entry: COC(=O)NCCc1n[nH]c2c1C(=O)C=C(Nc1ccccc1OC)C2=O
Return: f

Enquiry: Field: outcome | Entry: CCOC(=O)C1COc2cc(-c3cc(=O)c4ccccc4o3)ccc2O1 (stereo not given)
Return: f

Enquiry: Field: outcome | Entry: C/C=C(\C)c1cc(=O)c2c(C)cc3c(c2o1)C(=O)c1c(O)c(C2CC(C)(N(C)C)C(OC(C)=O)C(C)O2)cc(C2CC(N(C)C)C(O)C(C)O2)c1C3=O (stereo not given)
Return: f

Enquiry: Field: outcome | Entry: CC1(C)CC[C@]2(C(=O)O)CC[C@]3(C)C(=CC[C@@H]4[C@@]5(C)C[C@H](O)[C@H](O)[C@@](C)(C(=O)O)[C@@H]5CC[C@]43C)[C@@H]2C1
Return: f

Enquiry: Field: outcome | Entry: CC(C)(C)NNC(=O)/C(=C/c1ccc(Oc2ccc(Cl)c(Cl)c2)cc1)NC(=O)c1ccccc1
Return: f

Enquiry: Field: outcome | Entry: C=C1CC[C@@H](CCC2CCC3(OC2)O[C@]2(O)CC[C@@]3(C)OC2(C)C)C(C)(C)[C@H]1C/C=C1\CCOC1=O (stereo not given in full)
Return: f

Enquiry: Field: outcome | Entry: Cc1nc(O)c2ncn(CCO)c2n1
Return: f

Enquiry: Field: outcome | Entry: COc1ccc2[nH]c3c([N+](=O)[O-])ccc(Cl)c3c(=O)c2c1
Return: f

Enquiry: Field: outcome | Entry: O=c1c2cc(Br)cc(Br)c2nc(CCCl)n1-c1ccc(O)c([N+](=O)[O-])c1
Return: f

Enquiry: Field: outcome | Entry: COC(=O)C[C@](O)(CCC(C)(C)O)C(=O)O[C@@H]1C(OC)=C[C@]23CCCN2CCc2cc4c(cc2[C@H]13)OCO4
Return: t

Enquiry: Field: outcome | Entry: CCOc1ccccc1NC(=O)CSc1nnc(Cc2ccccc2)o1
Return: f

Enquiry: Field: outcome | Entry: CN(C)C(=O)Oc1c(-c2ccccc2)c(=O)n2c3ccccc3n3c(=O)n(C)c(=O)c1c23
Return: f

Enquiry: Field: outcome | Entry: CC(=O)NCCCCNCCCNC(C)=O
Return: f

Enquiry: Field: outcome | Entry: O=c1c(Sc2c(SCSc3cnc4ccccc4c3Sc3c[nH]c4ccccc4c3=O)cnc3ccccc23)c[nH]c2ccccc12
Return: f

Enquiry: Field: outcome | Entry: O=C(NO)c1ccc(O)c(O)c1
Return: f

Enquiry: Field: outcome | Entry: Cc1ccc(/N=C2N=C(Cl)/C(=C\c3ccco3)N\2)cc1
Return: f

Enquiry: Field: outcome | Entry: Cc1cc(C)nc(NS(=O)(=O)c2ccc(Nc3c4ccccc4nc4c(C(=O)NC(CO)(CO)CO)cccc34)cc2)n1
Return: f

Enquiry: Field: outcome | Entry: O=C(N/C(=C\c1ccccc1Cl)c1nc2ccccc2[nH]1)c1ccccc1
Return: f

Enquiry: Field: outcome | Entry: CCOc1cc2c(cc1O)CC[C@@H]1[C@@H]2CC[C@]2(C)[C@@H](O)CC[C@@H]12
Return: f

Enquiry: Field: outcome | Entry: N=c1n(CC(=O)NC23CC4CC(CC(C4)C2)C3)c2ccccc2n1CC(=O)NC12CC3CC(CC(C3)C1)C2
Return: f

Enquiry: Field: outcome | Entry: Cc1cc(-c2nc3cc(F)ccc3s2)ccc1NC(=O)[C@@H](N)CCCCN
Return: t

Enquiry: Field: outcome | Entry: CC(=O)Nc1ccc(CNc2cc(=O)[nH]c(=O)[nH]2)cc1
Return: f

Enquiry: Field: outcome | Entry: Cc1ccc(NC(=O)C(=O)CC(=O)c2sc(Nc3c(C)cccc3C)nc2C)cc1C
Return: f

Enquiry: Field: outcome | Entry: O=C1CC(NC2CC(=O)c3c(Br)sc(Br)c32)c2c(Br)sc(Br)c21 (stereo not given)
Return: f

Enquiry: Field: outcome | Entry: COC1=CC2(CC(OC)=C1OC)OC21COc2ccccc2C1=O (stereo not given)
Return: f

Enquiry: Field: outcome | Entry: C=CCN1CCC(OC(=O)C(O)(/C=C\CC)C2CCCC2)CC1 (stereo not given)
Return: f

Enquiry: Field: outcome | Entry: COC(=O)C1=C(OC(=O)/C(=C/c2ccc(Cl)cc2)c2ccccc2)C(C(=O)OC)[C@@]2(O)[C@@H](C(=O)OC)[C@H](C)C[C@@H]1[C@@H]2C(=O)OC (stereo not given in full)
Return: f

Enquiry: Field: outcome | Entry: CCSCCC(N)C(=O)O (stereo not given)
Return: f

Enquiry: Field: outcome | Entry: CS(=O)(=O)NNS(=O)(=O)c1ccc(Br)cc1
Return: f

Enquiry: Field: outcome | Entry: C=C(C)C#CC(O)(C(=O)OC1CCN(C)CC1)C(C)C (stereo not given)
Return: f

Enquiry: Field: outcome | Entry: C/C(=C\COP(=O)(O)CP(=O)(O)O)CC/C=C(\C)CNc1ccccc1
Return: f

Enquiry: Field: outcome | Entry: CN(C)c1ccc(/C=C/c2ccc(/C=C/c3ccc(N(C)C)cc3)cc2)cc1
Return: f

Enquiry: Field: outcome | Entry: COc1cccc(N(CN2CC=CC2=O)C(C)=O)c1
Return: f

Enquiry: Field: outcome | Entry: O=C(/C(=C\I)c1ccccc1)c1ccccc1
Return: f

Enquiry: Field: outcome | Entry: CN(C)c1n/c(=N/Cc2ccccn2)ss1
Return: f

Enquiry: Field: outcome | Entry: O=C(CN1CCCC1)Nc1ccc2sc3ccccc3c(=O)c2n1
Return: f
